# pKd per record follows
Target: KRas G12D (Homo sapiens (Human), UniProt P01116, G12D)
Test: KRas G12D Surface Plasmon Resonance (SPR) Binding Assay
Details: Biacore T200, immobilized biotinylated KRAS protein, 1:1 binding model
Sequence (P01116-2 other isoform, or with tags, fused parts or gaps G12D): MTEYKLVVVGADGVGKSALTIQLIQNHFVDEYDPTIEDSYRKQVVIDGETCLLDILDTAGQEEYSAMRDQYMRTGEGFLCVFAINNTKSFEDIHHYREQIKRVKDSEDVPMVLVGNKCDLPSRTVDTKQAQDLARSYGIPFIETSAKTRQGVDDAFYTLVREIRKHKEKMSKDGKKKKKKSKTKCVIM
Scale: pKd equals -log10([C]), with [C] in mol/L.

molecule	number
Oc1cc(-c2ncc3c(N4C[C@H]5CC[C@@H](C4)N5)nc(OCCc4ccc(F)cn4)nc3c2F)c2ccccc2c1	6.59
CN1CCC[C@H]1COc1nc(N2C[C@H]3CC[C@@H](C2)N3)c2cnc(-c3cccc4c3C3(CC4)CC3)c(F)c2n1 [Example 162, bis(2,2,2-trifluoroacetate)]	6.26
CN1CCC[C@H]1COc1nc(N2C[C@H]3CC[C@@H](C2)N3)c2cnc(-c3cccc4ccc(F)c(Cl)c34)c(F)c2n1	7.50
Fc1c(-c2cccc3cccc(Cl)c23)ncc2c(N3CC4CCC(C3)N4)nc(OC[C@@]34CCCN3C[C@H](F)C4)nc12 (stereo in doubt)	8.16
Oc1cc(-c2ncc3c(N4C[C@H]5CC[C@@H](C4)N5)nc(OC[C@@H]4CCCN4)nc3c2F)c2ccccc2c1	8.68

Turning now to a further molecule:
*Q* Respond only with pKd recorded for COCCCOc1nc(N2C[C@H]3CC[C@@H](C2)N3)c2cnc(-c3cc(O)cc4ccccc34)c(F)c2n1
*A* 6.53

###

# pKd per record follows
Target: KRas G12D (Homo sapiens (Human), UniProt P01116, G12D)
Assay: KRas G12D Surface Plasmon Resonance (SPR) Binding Assay
Conditions: Biacore T200, immobilized biotinylated KRAS protein, 1:1 binding model
Scale: pKd equals -log10([C]), with [C] in mol/L.

Reference set, count: 3
compound	tested-system	observation-type	number
N#CC[C@@H]1C[C@@H]2CN(c3nc(OC[C@@]45CCCN4C[C@H](F)C5)nc4c(F)c(-c5cc(O)cc6ccccc56)ncc34)C[C@H]1N2 (racemic) [Example 339]	KRas G12D (Homo sapiens (Human), UniProt P01116, G12D)	pKd	7.67
CN1CC(COc2nc(N3C[C@H]4CC[C@@H](C3)N4)c3cnc(-c4cccc5cccc(Cl)c45)c(F)c3n2)CC1=O (stereo partly shown) [Example 131]	KRas G12D (Homo sapiens (Human), UniProt P01116, G12D)	pKd	5.81
CC(C)Cn1ccnc1CCOc1nc(N2C[C@H]3CC[C@@H](C2)N3)c2cnc(-c3cc(O)cc4ccccc34)c(F)c2n1 [Example 85]	KRas G12D (Homo sapiens (Human), UniProt P01116, G12D)	pKd	6.83

*Q* Respond only with pKd recorded for Oc1cc(-c2ncc3c(N4C[C@H]5CC[C@@H](C4)N5)nc(OCCc4ccccn4)nc3c2F)c2ccccc2c1 [Example 4]
*A* 6.81

###

Target: KRas G12D (Homo sapiens (Human), UniProt P01116, G12D)
Test: KRas G12D Binding Assay (TR-FRET displacement of Cy5 labelled tracer)
Settings: GDP-loaded KRAS G12D (amino acids 1:169), 60 minute incubation at 22° C.
Sequence (P01116 other isoform, or with tags, fused parts or gaps G12D): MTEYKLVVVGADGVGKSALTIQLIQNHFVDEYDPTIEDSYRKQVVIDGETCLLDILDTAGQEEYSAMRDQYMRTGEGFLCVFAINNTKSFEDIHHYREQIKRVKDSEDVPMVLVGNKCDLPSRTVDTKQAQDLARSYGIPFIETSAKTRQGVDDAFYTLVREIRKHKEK
We label by threshold. Values of IC50 strictly beneath 40 nM are true (1). Values of 40 nM and up are false (0).

molecule	answer-label
Cc1c(Cl)cc2[nH]ncc2c1-c1ncc2c(N3CC4CCC(C3)N4)nc(OC[C@@]34CCCN3C[C@H](F)C4)nc2c1F (stereo in doubt) [Example 401]	true (1)
Cn1cncc1COc1nc(N2C[C@H]3CC[C@@H](C2)N3)c2cnc(-c3cc(O)cc4ccccc34)c(F)c2n1 [Example 95]	false (0)
Fc1c(-c2cccc3cccc(C(F)(F)F)c23)ncc2c(N3C[C@H]4CC[C@@H](C3)N4)nc(OC[C@@]34CCCN3C[C@H](F)C4)nc12 [Example 419]	false (0)
Oc1ccc(OC(F)(F)F)c(-c2ncc3c(N4CC5CCC(C4)N5)nc(OCC45CCCN4C[C@H](F)C5)nc3c2F)c1 (mixture of isomers) [Example 340]	true (1)
CCn1ccc2cccc(-c3ncc4c(N5C[C@H]6CC[C@@H](C5)N6)nc(OCC56CCCN5CCC6)nc4c3F)c21 [Example 427]	true (1)

*Q* Determine whether this molecule shows IC50 lower than 40 nM (ties excluded): CN1CCC[C@H]1COc1nc(N2CC3C[C@@H](O)C(C2)N3)c2cnc(-c3cc(O)cc4ccccc34)c(F)c2n1 (stereo partly drawn) [Example 31]
*A* true (1)

###

# pIC50 per record follows
Target: KRas G12D (Homo sapiens (Human), UniProt P01116, G12D)
Test: KRas G12D Binding Assay (TR-FRET displacement of Cy5 labelled tracer)
Conditions: GDP-loaded KRAS G12D (amino acids 1:169), 60 minute incubation at 22° C.
Scale: pIC50 equals -log10([C]), with [C] in mol/L.

compound	pIC50
Cc1cc(-c2ncc3c(N4C[C@H]5CC[C@@H](C4)N5)nc(OCC45CCCN4CCC5)nc3c2F)c2c(Cl)cccc2c1 [Example 175]	7.20

*Q* Respond only with pIC50 recorded for Fc1c(-c2ccccc2C(F)F)ncc2c(N3C[C@H]4CC[C@@H](C3)N4)nc(OCC34CCCN3CCC4)nc12 [Example 293]
*A* 6.16

*Q* Respond only with pIC50 recorded for Cc1cccc(CCOc2nc(N3C[C@H]4CC[C@@H](C3)N4)c3cnc(-c4cc(O)cc5ccccc45)c(F)c3n2)n1 [Example 87]
*A* 6.27

*Q* Respond only with pIC50 recorded for Oc1cc(-c2ncc3c(N4C[C@H]5CC[C@@H](C4)N5)nc(OCCN4C[C@@H]5C[C@H]4CO5)nc3c2F)c2ccccc2c1 [Example 26]
*A* 7.38

*Q* Respond only with pIC50 recorded for Oc1cc(-c2ncc3c(N4C[C@H]5CC[C@@H](C4)N5)nc(OCC4(C(F)(F)F)CC4)nc3c2F)c2ccccc2c1 [Example 51]
*A* 6.54

*Q* Respond only with pIC50 recorded for Oc1cc(-c2ncc3c(N4C[C@H]5CC[C@@H](C4)N5)nc(OCCc4cccnc4)nc3c2F)c2ccccc2c1 [Example 106]
*A* 6.81

*Q* Respond only with pIC50 recorded for CC1(c2ccccc2-c2ncc3c(N4C[C@H]5CC[C@@H](C4)N5)nc(OCC45CCCN4CCC5)nc3c2F)CC1 [Example 305]
*A* 6.44

*Q* Respond only with pIC50 recorded for O[C@@H]1C[C@@H]2CN(c3nc(OCCc4nccn4C(F)F)nc4c(F)c(-c5cccc6cccc(Cl)c56)ncc34)C[C@H]1N2 [Example 166]
*A* 5.89

*Q* Respond only with pIC50 recorded for Oc1ccc(C(F)(F)F)c(-c2ncc3c(N4C[C@H]5CC[C@@H](C4)N5)nc(OCC45CCCN4CCC5)nc3c2F)c1 [Example 373]
*A* 8.80

*Q* Respond only with pIC50 recorded for Oc1cc(-c2ncc3c(N4C[C@H]5CC[C@@H](C4)N5)nc(OCCC(F)(F)F)nc3c2F)c2ccccc2c1 [Example 81]
*A* 6.82

*Q* Respond only with pIC50 recorded for Fc1c(-c2cccc3cccc(Cl)c23)ncc2c(N3C[C@H]4CC[C@@H](C3)N4)nc(N3CC4(CCN4)C3)nc12 [Example 130]
*A* 5.78

*Q* Respond only with pIC50 recorded for OCC#Cc1cccc2cccc(-c3ncc4c(N5C[C@H]6CC[C@@H](C5)N6)nc(OCC56CCCN5CCC6)nc4c3F)c12 [Example 193]
*A* 7.90

*Q* Respond only with pIC50 recorded for CC(C)(C)[Si](C)(C)OCC1CCC2(COc3nc(N4C[C@H]5CC[C@@H](C4)N5)c4cnc(-c5cccc6cccc(Cl)c56)c(F)c4n3)CCCN12 (some centres unmarked) [Example 64]
*A* 8.48

*Q* Respond only with pIC50 recorded for Fc1c(-c2cccc3cccc(OC(F)(F)F)c23)ncc2c(N3C[C@H]4CC[C@@H](C3)N4)nc(OCC34CCCN3CCC4)nc12 [Example 345]
*A* 7.97

*Q* Respond only with pIC50 recorded for FCCCc1cccc2cccc(-c3ncc4c(N5C[C@H]6CC[C@@H](C5)N6)nc(OCC56CCCN5CCC6)nc4c3F)c12 [Example 255]
*A* 8.06

*Q* Respond only with pIC50 recorded for CCc1c(F)ccc2cccc(-c3ncc4c(N5CC6CCC(C5)N6)nc(OC[C@@]56CCCN5C[C@H](F)C6)nc4c3F)c12 (stereo in doubt) [Example 381]
*A* 9.15

###

Target: KRas G12D (Homo sapiens (Human), UniProt P01116, G12D)
Experiment: KRas G12D Binding Assay (TR-FRET displacement of Cy5 labelled tracer)
Conditions: GDP-loaded KRAS G12D (amino acids 1:169), 60 minute incubation at 22° C.
observation-type: log10 IC50 (log10 of the value in nM)
Heads up, the numbers here are log10 of IC50 in nM units.

molecule	log10 IC50
Fc1ccc2cccc(-c3ncc4c(N5C[C@H]6CC[C@@H](C5)N6)nc(OC[C@@]56CCCN5C[C@H](F)C6)nc4c3F)c2c1F [Example 430]	0.00
CNC(C)COc1nc(N2CC3CCC(C2)N3)c2cnc(-c3cccc4cccc(Cl)c34)c(F)c2n1 (stereo not drawn) [Example 363, bis(2,2,2-trifluoroacetate)]	3.59
Fc1c(-c2ccccc2C2CC2)ncc2c(N3C[C@H]4CC[C@@H](C3)N4)nc(OC[C@@]34CCCN3C[C@H](F)C4)nc12 [Example 448]	2.11
Oc1ccc(CC(F)(F)F)c(-c2ncc3c(N4C[C@H]5CC[C@@H](C4)N5)nc(OC[C@@]45CCCN4C[C@H](F)C5)nc3c2F)c1 [Example 424]	0.70
CC(C)N1CCC[C@H]1COc1nc(N2C[C@H]3C[C@@H](O)[C@@H](C2)N3)c2cnc(-c3cccc4cccc(Cl)c34)c(F)c2n1 [Example 153]	1.71

*Q* Respond only with log10 IC50 recorded for COc1nc(N2C[C@H]3CC[C@@H](C2)N3)c2cnc(-c3cc(O)cc4ccccc34)c(F)c2n1 [Example 105]
*A* 2.94
